All figures here come from patent EP0855398B1.

experiment: in vitro; conditions: bovine, mdbk cells
Each entry below carries its reported CC50 at 72 h.
Give just the numeric value; µg/mL need not be written.

Using the record for C[C@H]1CC[C@H]2C(C)(C)[C@@H](O)CC[C@]23Oc2c(c(O)cc4c2C(=O)NC4=O)C[C@]13C [(32a)] , report its CC50 at 72 h.
20

Same question for C[C@H]1CC[C@H]2C(C)(C)[C@@H](OC(=O)c3cnccn3)CC[C@]23Oc2c(c(O)cc4c2CNC4=O)C[C@]13C [Compound (35b)] please.
10

Same question for C[C@H]1CC[C@H]2C(C)(C)[C@@H](O)CC[C@]23Oc2c(c(O)cc4c2CNC4=O)C[C@]13C [(2)] please.
25

---

test: in vitro; conditions: bovine, mdbk cells
Each entry below carries its reported CC50 at 72 h.

{"columns": ["molecule", "CC50 at 72 h"],
 "data": [
  ["C[C@H]1CC[C@H]2C(C)(C)[C@H](O)CC[C@]23Oc2c(c(O)cc4c2C(=O)NC4=O)C[C@]13C", "12.5 to 25 µg/mL"],
  ["C[C@H]1CC[C@H]2C(C)(C)[C@@H](O)CC[C@]23Oc2c(c(O)cc4c2C(=O)N(C)C4=O)C[C@]13C [Compound (32b)]", "10 µg/mL"]
]}

Using the record for CCCCN1C(=O)c2cc(O)c3c(c2C1=O)O[C@@]12CC[C@H](O)C(C)(C)[C@@H]1CC[C@H](C)[C@@]2(C)C3 [Compound (32c)] , report its CC50 at 72 h.
5 µg/mL

---

experiment: in vitro; details: bovine
value kind: CC50

{"columns": ["molecule", "CC50"],
 "data": [
  ["C[C@H]1CC[C@H]2C(C)(C)[C@@H](NS(=O)(=O)c3ccccc3)CC[C@]23Oc2c(c(O)cc4c2CNC4=O)C[C@]13C [Compound (47d)]", "5 to 10 µg/mL"],
  ["CCCOC1NC(=O)c2cc(O)c3c(c21)O[C@@]12CC[C@H](O)C(C)(C)[C@@H]1CC[C@H](C)[C@@]2(C)C3 (some centres unmarked) [Compound (30c)]", "20 µg/mL"],
  ["C[C@H]1CC[C@H]2C(C)(C)[C@H](OS(C)(=O)=O)CC[C@]23Oc2c(c(O)cc4c2CNC4=O)C[C@]13C [Compound (13b)]", "5 µg/mL"],
  ["C[C@H]1CC[C@H]2C(C)(C)C(=NN3CCOCC3)CC[C@]23Oc2c(c(O)cc4c2CNC4=O)C[C@]13C [Compound (51f)]", "25 µg/mL"]
]}

Using the record for CON=C1CC[C@@]23Oc4c(c(O)cc5c4CNC5=O)C[C@]2(C)[C@@H](C)CC[C@H]3C1(C)C [Compound (51b)] , report its CC50.
5 to 10 µg/mL

Same question for C[C@@H]1NC(=O)c2cc(O)c3c(c21)O[C@@]12CC[C@H](O)C(C)(C)[C@@H]1CC[C@H](C)[C@@]2(C)C3 [Compound (67a)] please.
6.3 to 12.5 µg/mL

Same question for C[C@H]1CC[C@H]2C(C)(C)C(=NNC(N)=O)CC[C@]23Oc2c(c(O)cc4c2CNC4=O)C[C@]13C [Compound (51d)] please.
> 10 µg/mL

Same question for C[C@H]1CC[C@H]2C(C)(C)[C@@H](NC(=O)Nc3ccccc3)CC[C@]23Oc2c(c(O)cc4c2CNC4=O)C[C@]13C [Compound (47e)] please.
> 10 µg/mL
